biological target: Platelet-derived growth factor receptor beta (Mus musculus)
Sequence (P05622 whole entry): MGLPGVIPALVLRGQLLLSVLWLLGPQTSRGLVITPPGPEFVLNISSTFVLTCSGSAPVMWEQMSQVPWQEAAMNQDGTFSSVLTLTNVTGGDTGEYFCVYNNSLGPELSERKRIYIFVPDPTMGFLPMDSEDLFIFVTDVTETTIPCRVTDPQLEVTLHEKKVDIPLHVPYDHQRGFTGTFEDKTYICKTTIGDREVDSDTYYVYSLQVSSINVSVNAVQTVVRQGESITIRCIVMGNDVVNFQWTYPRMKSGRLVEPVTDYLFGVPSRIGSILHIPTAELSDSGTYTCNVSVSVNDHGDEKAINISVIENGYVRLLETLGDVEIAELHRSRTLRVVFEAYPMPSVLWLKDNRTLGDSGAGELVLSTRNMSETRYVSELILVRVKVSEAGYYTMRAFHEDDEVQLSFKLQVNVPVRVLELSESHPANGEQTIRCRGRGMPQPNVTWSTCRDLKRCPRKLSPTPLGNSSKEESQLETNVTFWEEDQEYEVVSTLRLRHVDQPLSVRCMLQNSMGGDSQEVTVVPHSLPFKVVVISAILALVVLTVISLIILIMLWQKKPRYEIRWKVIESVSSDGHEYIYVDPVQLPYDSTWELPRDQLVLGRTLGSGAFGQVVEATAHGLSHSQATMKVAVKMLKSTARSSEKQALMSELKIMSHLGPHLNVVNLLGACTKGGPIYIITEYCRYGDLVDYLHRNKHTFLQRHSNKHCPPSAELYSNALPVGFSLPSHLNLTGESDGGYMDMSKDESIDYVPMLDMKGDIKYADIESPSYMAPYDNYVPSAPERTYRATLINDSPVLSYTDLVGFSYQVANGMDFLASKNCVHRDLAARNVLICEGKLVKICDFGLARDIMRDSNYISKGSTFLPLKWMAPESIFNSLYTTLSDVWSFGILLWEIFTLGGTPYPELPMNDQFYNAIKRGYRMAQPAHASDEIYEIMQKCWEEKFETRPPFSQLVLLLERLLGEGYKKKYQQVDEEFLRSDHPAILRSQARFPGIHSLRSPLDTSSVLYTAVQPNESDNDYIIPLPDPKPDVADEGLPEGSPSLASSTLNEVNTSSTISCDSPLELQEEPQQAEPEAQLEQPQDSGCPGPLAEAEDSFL
Let's look at some compounds and their measured IC50.

Here are 6 compounds together with their reported answers.
>>> test_result("O=C(c1cc2ccc(O)cc2o1)c1cc2ccc(O)cc2o1")
"9.7 µM"
>>> test_result("Cc1cc2ncc(-c3ccccc3)nc2cc1C [AG1295]")
"5.4 µM"
>>> test_result("O=C(c1cc2cc(O)ccc2[nH]1)c1cc2cc(O)ccc2o1")
"0.2 µM"
>>> test_result("COc1ccc2cc(C(=O)c3cc4ccc(OC)cc4o3)oc2c1")
"> 30 µM"
>>> test_result("CC(=O)Oc1ccc2oc(C(=O)c3cc4cc(OC(C)=O)ccc4o3)cc2c1")
"0.7 µM"
>>> test_result("COc1cccc2oc(C(=O)c3cc4c(OC)cccc4o3)cc12")
"> 30 µM"

Exam item: Request body: readout IC50, system Platelet-derived growth factor receptor beta (Mus musculus), query O=C(c1cc2ccccc2[nH]1)c1cc2ccccc2o1 . Return the value.
Marked response: 1.07 µM
